// provenance: ChEMBL document CHEMBL1146752

Please provide measured pIC50 for the entries that follow.
Test system: THP-1
Test Summary: Inhibitory activity evaluated against human THP-1 cell line in cellular assay
Type: functional, cell-based
Answers are plain numbers, as −log10 of the molar value.

# Molecule, Experimental Target, Obs Value
data = [
    ("CC(C)[C@H](NC(=O)C(=O)NC1CCCCC1)C(=O)N[C@@H](CC(=O)O)C(=O)COc1c(F)c(F)cc(F)c1F", "THP-1", 6.14),
]

Value sought for every listed molecule: pIC50.
1. CC(C)[C@H](NC(=O)C(=O)Nc1ccc(F)cc1)C(=O)N[C@@H](CC(=O)O)C(=O)COc1c(F)c(F)cc(F)c1F
2. CC(C)(C)C(NC(=O)C(=O)Nc1cccc2ccccc12)C(=O)N[C@@H](CC(=O)O)C(=O)COc1c(F)c(F)cc(F)c1F (stereo partly specified)

1. 5.92
2. 6.57

Value sought for every listed molecule: pIC50.
1. CC(C)[C@H](NC(=O)C(=O)Nc1ccc2ccccc2c1)C(=O)N[C@@H](CC(=O)O)C(=O)COc1c(F)c(F)cc(F)c1F
2. CC(C)[C@H](NC(=O)C(=O)Nc1ccc2cc3ccccc3cc2c1)C(=O)N[C@@H](CC(=O)O)C(=O)COc1c(F)c(F)cc(F)c1F
3. O=C(O)C[C@H](NC(=O)C1CCC(NC(=O)C(=O)Nc2cccc3ccccc23)C1)C(=O)COc1c(F)c(F)cc(F)c1F (stereo partly specified)
4. CC(C)[C@H](NC(=O)C(=O)NC12CC3CC(CC(C3)C1)C2)C(=O)N[C@@H](CC(=O)O)C(=O)COc1c(F)c(F)cc(F)c1F
5. CC(C)[C@H](NC(=O)C(=O)Nc1ccncc1)C(=O)N[C@@H](CC(=O)O)C(=O)COc1c(F)c(F)cc(F)c1F
6. CC(C)[C@H](NC(=O)C(=O)Nc1ccccc1F)C(=O)N[C@@H](CC(=O)O)C(=O)COc1c(F)c(F)cc(F)c1F

[6.15, 6.18, 6.03, 5.75, 5.25, 6.17]

Value sought for every listed molecule: pIC50.
1. CC(C)[C@H](NC(=O)C(=O)Nc1c(F)cccc1F)C(=O)N[C@@H](CC(=O)O)C(=O)COc1c(F)c(F)cc(F)c1F
2. CC(C)[C@H](NC(=O)C(=O)Nc1ccccc1Oc1ccccc1)C(=O)N[C@@H](CC(=O)O)C(=O)COc1c(F)c(F)cc(F)c1F
3. CC(C)[C@H](NC(=O)C(=O)Nc1c(F)cc(F)c(F)c1F)C(=O)N[C@@H](CC(=O)O)C(=O)COc1c(F)c(F)cc(F)c1F
4. CC(C)[C@H](NC(=O)C(=O)Nc1cccc(Oc2ccccc2)c1)C(=O)N[C@@H](CC(=O)O)C(=O)COc1c(F)c(F)cc(F)c1F
5. CC(C)[C@H](NC(=O)C(=O)Nc1cc(F)c(F)c(F)c1F)C(=O)N[C@@H](CC(=O)O)C(=O)COc1c(F)c(F)cc(F)c1F
6. CC(C)[C@H](NC(=O)C(=O)Nc1cccc2ccccc12)C(=O)N[C@@H](CC(=O)O)C(=O)COc1ccnc(C(F)(F)F)n1

6.42
5.75
6.57
5.73
6.24
6.60
